# test system: T1, HLA-DP401 (HLA-DPB1*04:01) (human, UniProt P20036 29-222)
# T1 construct: mature; purified from homozygous EBV-transformed lymphoblastoid cells with antibody B7/21
# T1 sequence (P20036 29-222 limits assumed, chain 1 of 3, other chains not shown): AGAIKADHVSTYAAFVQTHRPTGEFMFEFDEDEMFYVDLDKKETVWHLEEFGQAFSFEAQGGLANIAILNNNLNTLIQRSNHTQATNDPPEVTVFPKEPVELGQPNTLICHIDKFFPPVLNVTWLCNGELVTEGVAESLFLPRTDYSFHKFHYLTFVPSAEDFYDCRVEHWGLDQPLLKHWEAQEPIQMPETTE
# experiment notes: competition ELISA vs biotin-Oxy 271-287
No end group written: not given here.
property label: relative affinity
Please respond with just the number, no unit label.

Example results:
binder: SKYEEMYPPEIGDFA-NH2 [CCNB1 256-270]
relative affinity: 894

binder: REVTGNMRAILIDWL-NH2 [CCNB1 195-209]
relative affinity: 725

binder: KKLPKPLEKVPMLVP-NH2 [CCNB1 77-91]
relative affinity: 212

binder: H-KNVVMVNQGLTKHMT-NH2 (not fully specified) [CCNB1 385-399]
relative affinity: 116

Now for another entry.
Input: For QAFSDVILAVNDVDA-NH2 [CCNB1 144-158] , what is its reported relative affinity?
Output: 51

Source of measurements: patent US20180086804A1
